- STUDY_SYSTEM: T1, monkey GPC3-His protein (monkey)
- T1 construct: Bought recombinant protein; also called monkey GPC3 protein
- TEST_PROTOCOL: ELISA, monkey GPC3-His coated;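 also: Plate-coated antigen at 1 µg/mL, antibody binding 2 h at 37 °C, detected with HRP-labeled secondary antibody and TMB, absorbance at 450 nm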
PROPERTY_MEASURED: OD450 at 10 nM (OD450)
Just the number please, in OD450, no unit attached.

{"columns": ["BINDER", "OD450 at 10 nM (OD450)"],
 "data": [
  ["F1.145.22 (antibody, human IgG1, kappa, V domains shown, Human-murine chimeric antibody) VH: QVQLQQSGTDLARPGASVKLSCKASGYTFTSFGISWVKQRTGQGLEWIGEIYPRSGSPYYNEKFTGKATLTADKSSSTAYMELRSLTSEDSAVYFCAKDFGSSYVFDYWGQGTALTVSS VL: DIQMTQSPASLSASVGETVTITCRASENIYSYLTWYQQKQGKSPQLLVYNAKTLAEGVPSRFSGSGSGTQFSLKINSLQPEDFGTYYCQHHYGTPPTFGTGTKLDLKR", 2.39]
]}

We now examine a further binder.
Per the record, F1.41.17 (antibody, human IgG1, kappa, V domains shown, Human-murine chimeric antibody) VH: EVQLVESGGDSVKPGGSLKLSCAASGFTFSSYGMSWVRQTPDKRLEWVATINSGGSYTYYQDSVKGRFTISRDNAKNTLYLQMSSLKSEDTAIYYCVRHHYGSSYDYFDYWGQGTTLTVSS VL: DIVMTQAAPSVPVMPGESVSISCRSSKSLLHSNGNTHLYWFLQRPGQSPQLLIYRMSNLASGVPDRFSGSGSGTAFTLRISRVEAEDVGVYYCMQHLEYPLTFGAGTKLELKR has OD450 at 10 nM of 0.81
